target: T1, cynomolgus monkey CD3 on cynomolgus monkey PBMC or T cell line HSC-F (cynomolgus monkey, UniProt Q95LI5 22-198); assay: flow cytometry on cynomolgus monkey PBMC
T1 construct: whole, on cells; Native CD3 complex on monkey T cells; also called cynomolgus monkey CD3 (PBMC); cynomolgus monkey CD3 antigen
T1 sequence (Q95LI5 22-198): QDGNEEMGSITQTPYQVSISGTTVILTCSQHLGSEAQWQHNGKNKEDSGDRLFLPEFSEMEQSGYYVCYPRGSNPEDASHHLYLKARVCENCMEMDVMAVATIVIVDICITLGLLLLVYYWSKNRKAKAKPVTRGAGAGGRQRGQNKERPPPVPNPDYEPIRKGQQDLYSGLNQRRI
quantity_kind: binding result

[[record]]
binder = "C3E-7095 (CDR modified humanized anti-CD3 scFv) (scFv, C3E-7079 with alanine for aspartic acid at position 52 of the VL; the change is already in the entry) scFv: GEVQLVESGGGLVQPGGSLRLSCAASGVTFNYYGMSWIRQAPGKGLEWVASITSSGGRIYYPDSVKGRFTISRENTQKTLYLQMNSLRAEDTAVYYCTLDGRDGWVAYWGQGTLVTVSSGGGGSGGGGSGGGGSNFMLTQPHSVSESPGKTVTISCKRNTGNIGSNYVNWYQQHEGSSPTTIIYRADKRPDGVSDRFSGSIDRSSKSASLTISNLKTEDEADYFCQSYSSGFIFGGGTKLTVLGAAAGAGGDYKDDDDKGAAAHHHHHH"
quantity_kind = "binding result"
value = "binds"

[[record]]
binder = "C3E-7085 (CDR modified humanized anti-CD3 scFv) (scFv, C3E-7036 with arginine for asparagine at position 53 of the VH; the change is already in the entry) scFv: GEVQLVESGGGLVQPGGSLRLSCAASGVTFNYYGMSWIRQAPGKGLEWVASITRSGGRIYYPDSVKGRFTISRENTQKTLYLQMNSLRAEDTAVYYCTLDGRDGWVAYWGQGTLVTVSSGGGGSGGGGSGGGGSNFMLTQPSSVSGVPGQRVTISCTGNTGNIGSNYVNWYQQLPGTAPKLLIYRDDKRPSGVPDRFSGSKSGTSASLAITGFQAEDEADYYCQSYSSGFIFGGGTKLTVLGAAAGAGGDYKDDDDKGAAAHHHHHH"
quantity_kind = "binding result"
value = "binds"


Source listed as patent US20190359712A1.
